# assaySummary: Serum esketamine levels (LC-MS/MS) after intranasal esketamine 56 mg in TRD patients
# testParameters: human, serum, other: intranasal, 56 mg, AUC value, single patient, serum, 0-72 h, group 3 patient also on valproate and atorvastatin
resultType: AUC (ng·h/mL)
Unit ng·h/mL implied. Number only.

// lookup AUC for CN[C@]1(c2ccccc2Cl)CCCCC1=O [esketamine, (S)-isomer of ketamine]
599

====

# assaySummary: Serum esketamine levels (LC-MS/MS) after intranasal esketamine 56 mg in TRD patients
# testParameters: human, serum, other: intranasal, 56 mg, AUC value, single patient, serum, 0-72 h, group 5 patient also on prednisone
resultType: AUC (ng·h/mL)
Please state the figure in ng·h/mL; there is no need to write the unit.

Request the reported AUC associated with CN[C@]1(c2ccccc2Cl)CCCCC1=O [esketamine, (S)-isomer of ketamine]
957

====

# assaySummary: Serum esketamine levels (LC-MS/MS) after intranasal esketamine 56 mg in TRD patients
# testParameters: human, serum, other: intranasal, 56 mg, AUC value, average of group, serum, 0-72 h, group 5 (vortioxetine)
resultType: AUC (ng·h/mL)
Provide the reading as a plain figure in ng·h/mL.

Fill in the blank: the reported AUC of CN[C@]1(c2ccccc2Cl)CCCCC1=O [esketamine, (S)-isomer of ketamine] is ____.
439
